- Test system: NCI-H522 lung
- test-details: NCI-60 one-dose screen, 48 h (100 = growth as untreated, 0 = no growth, -100 = all killed)
- test-parameters: 10 µM unless noted
About 83,000 compounds went through this panel and 20% of them were active in at least one assay; those are over-represented in the sample as a whole.
Listed here: items and their measured growth.
measured-parameter: growth (%)

• CCCCCCN(CCCCCC)CCCNc1nccc2ccccc12 = 4.1
• NCCCN(CCCN)CCCNCc1c2ccccc2c(CNCCCN(CCCN)CCCN)c2ccccc12 = 89.7
• CCOc1ccc(C(CN2CCOCC2)C(C)=O)cc1OC (stereo unspecified) = -51.6
• O=C(c1ccccc1)C(O)C(Br)(CBr)c1ccccc1 (stereo unspecified) = -30.8
• COc1ccc(/C=C2/C(=O)ON=C2C)cc1 = 94.2
• Cc1cc2nc(CC(=O)c3ccncc3)c(=O)[nH]c2cc1C = 87.6
• CCN(CC)CCNc1ccc([N+](=O)[O-])c2sc3ccccc3c(=O)c12 = 12.7
• O=C1C=CC(O)=CC1=P(c1ccccc1)(c1ccccc1)c1ccccc1 = 81.8
• O=C(Cc1nc2cc(Cl)c(Cl)cc2nc1CC(=O)c1cccnc1)c1cccnc1 = 58.8
• Cc1ccc2c(c1)sc(-c1ccc(N(C)C)cc1)[n+]2C = 8.21
• COC(=O)c1ccc(=O)c2nc3/c(=C/O)c(O)cc(=O)c3[nH]c12 = 6.78

* * *

- Test system: MOLT-4 leukemia
- test-details: NCI-60 one-dose screen, 48 h (100 = growth as untreated, 0 = no growth, -100 = all killed)
- test-parameters: 10 µM unless noted
This is part of a sample that, as a whole, favours compounds with a hit. Of some 83,000 tested, about 20% had one in any assay.
Listed here: items and their measured growth.
measured-parameter: growth (%)

• OC(Cc1cc(CC(O)(C(F)(F)F)C(F)(F)F)nc(CC(O)(C(F)(F)F)C(F)(F)F)c1)(C(F)(F)F)C(F)(F)F = -8.17
• N=C1C=C(N)C(=O)c2ccccc21 = -25
• C[n+]1ccccc1C[n+]1ccccc1 = 83.6
• Clc1ccc(Cc2nc3ccccc3s2)cc1 = 92.6
• CC(C)(C)CC(C)(C)c1ccc(OCCOCCSC(=N)N)cc1 = 14.4
• CCN1CCCC(Nc2cc(C)nc(/N=C(/N)Nc3ccc(Cl)c(Cl)c3)n2)C1 (stereo unspecified) = -35.4

* * *

Listed here: items and their measured growth.
- Tested on: U251 CNS
- test-details: NCI-60 one-dose screen, 48 h (100 = growth as untreated, 0 = no growth, -100 = all killed)
- test-parameters: 10 µM unless noted
About 83,000 compounds went through this panel and 20% of them were active in at least one assay; those are over-represented in the sample as a whole.
measured-parameter: growth (%)

- N#CC(=C1SCS1)[N+](=O)[O-]: 14.4
- COc1c(C)c2c(c(O)c1C/C=C(\C)CCC(=O)O)C(=O)OC2: 18.3
- CC1(C)N=c2cc3c(cc2N1c1ccc(Cl)cc1)=Nc1ccccc1N3c1ccc(Cl)cc1: 39.3
- O=C1C=CC(=O)N1c1ccc(O)cc1: 99.9
- NC(=S)N/N=C/c1ncccc1O: 25.4
- CCCCCCCCCCCCCCCCCC1=NCCCN1CCO: 98.2
- COc1cc(/C=C/c2ccnc3ccccc23)cc(OC)c1OC: 33.2
- O/N=C1\c2ccccc2-c2ccc(F)cc21: 106
- COc1cc(NCc2ccc3nc(N)nc(N)c3c2C)cc(OC)c1OC (tested in a mixture with another compound): 31.2
- CN(C)CCSC1=Nc2ccc(Cl)cc2C(c2ccccc2Cl)N(C)C1 (configuration not stated): 71.2
- CCOC(=O)c1[nH]c(C#N)c(C(=O)OCC)c1C: 99.1
- S=C=Nc1ccc(N2CCOCC2)cc1: 97.6

* * *

- Test system: MOLT-4 leukemia
- test-details: NCI-60 one-dose screen, 48 h (100 = growth as untreated, 0 = no growth, -100 = all killed)
- test-parameters: 10 µM unless noted
About 83,000 compounds went through this panel and 20% of them were active in at least one assay; those are over-represented in the sample as a whole.
Lab note: anything with growth at or over 60% counts as yes (1); the rest go in no (0).

- CCCN(CCC)C(=O)c1ccc(C)cc1: yes (1)
- CCSc1nc2ccccc2o1: yes (1)
- O=C1Nc2ccc(Br)cc2C1=O: yes (1)
- CN1CSC(=S)N(Cc2ccccc2)C1: yes (1)
- O=C(Nc1cccc(C(F)(F)F)c1)Oc1ccc(Cl)c2cccnc12: no (0)
- CN(C)c1ccc(/C=C/c2nccc3ccccc23)cc1: yes (1)

* * *

- System: RPMI-8226 leukemia
- test-details: NCI-60 one-dose screen, 48 h
- test-parameters: 10 µM unless noted
About 83,000 compounds went through this panel and 20% of them were active in at least one assay; those are over-represented in the sample as a whole. Active and inactive are the calls of the source. The calls were made as follows: active = growth percent below 10; inactive = the rest.
Outcome codes: T (active), F (inactive)

* O=C1C(=O)c2cc([N+](=O)[O-])ccc2-c2ccccc21 | T
* COc1ccc2c(c1OC)OCC(CN(C)C)C2=O (centres undefined) | T
* Cc1cc(Br)c2nsnc2c1[N+](=O)[O-] | F
* S=C(S)OCN1CCOCC1 | F
* Cc1cc2nc(CC(=O)c3ccncc3)c(=O)[nH]c2cc1C | F
* CCCCCCCCCCCCCCCC[N+]1(C)CCCC1c1cccnc1 (centres undefined) | F
* CC(C)(C)c1ccc(CCO)cc1 | F
* O=C(O)c1cccc2cccc(-c3c4ccc(=O)c(O)c-4oc4c(O)c(O)ccc34)c12 | F
* Cc1oc2c(C)c3oc(=O)cc(C)c3cc2c1CCl | F
* CCOC(=O)/C(=C\c1ccc2ccccc2c1)P(=O)(OCC)OCC | T
* CCCCCCN(CCCCCC)CCCNc1nccc2ccccc12 | T
* CCC1C[N+]2=C(c3cc(OC)c(OC)cc3CC2)c2c1cc1n2CCc2cc(OC)c(OC)cc2-1 (centres undefined) | F
* COc1ccc2nc3cc(Cl)ccc3c(NCCCCCN3CCCCC3)c2c1 | T
* CN(C)CCN(C)CC(C)(C)C(=O)/C=C/c1ccc(Cl)c(Cl)c1 | T
* CCOc1cc(F)c([N+](=O)[O-])cc1[N+](=O)[O-] | F
* O=C1C=CC(=O)N1c1ccc(O)cc1 | F
* CC12CCC(O)CC1=CCC1C2CCC2(C)C3=NN=CC3CC12 (centres undefined) | F
* CC1=CC(=NC(=O)CBr)C=C/C1=N\S(=O)(=O)c1ccccc1 | F
* O=C1C=CC(=O)c2c(O)c(CO)c(CO)c(O)c21 | F
* CCC(C)(O)Cc1ccc(Cl)cc1 (centres undefined) | F
* CCC[CH2][Sn]1([CH2]CCC)[O]C2C(CO)OC(n3ccc(N)nc3=O)C2[O]1 (centres undefined) | T
* CCOC(=O)c1c(C)[nH]c2ccc(O)cc12 | F
* Cc1onc(-c2ccccc2)c1C(=O)N/N=C/c1cc(Cl)cc(Cl)c1O | F
* Cc1nc(Sc2nc3ccc([N+](=O)[O-])cc3s2)sc1C | T

* * *

- System: T-47D breast
- test-details: NCI-60 one-dose screen, 48 h (100 = growth as untreated, 0 = no growth, -100 = all killed)
- test-parameters: 10 µM unless noted
This is part of a sample that, as a whole, favours compounds with a hit. Of some 83,000 tested, about 20% had one in any assay.
measured-parameter: growth (%)

- S=c1[nH]c2cc(Cl)ccc2s1: 90.4
- O=C(c1ccccc1)C(O)C(Br)(CBr)c1ccccc1 (configuration not stated): 98.6
- CCOc1ccc(C(CN2CCOCC2)C(C)=O)cc1OC (configuration not stated): 33.2
- CCCCCCCCCCCC[n+]1ccccc1 (tested in a mixture with another compound): 14.4
- NC(=S)N/N=C\c1nccc2c(N)cccc12: 11
- O=[N+]([O-])c1ccc2c(c1)Cc1ccccc1-2: 94
- COc1ccc(C(OCC2OC(n3ccc(NC(=O)c4ccccc4)nc3=O)C(O)C2O)(c2ccccc2)c2ccccc2)cc1 (configuration not stated): 40.2
- Cc1oc2c(C)c3oc(=O)cc(C)c3cc2c1CCl: 53.9
- COC(=O)c1ccc(=O)c2nc3/c(=C/O)c(O)cc(=O)c3[nH]c12: 25.6
- O=C(/C=C/C(Cl)(Cl)Cl)Nc1ccc(Cl)cc1: 94.6
- Cc1cc(I)nc2ccccc12: 95.8
- O=C(Nc1ccc(Cl)c(Cl)c1)OCc1ccco1: 38.4

* * *

- System: NCI-H522 lung
- test-details: NCI-60 one-dose screen, 48 h
- test-parameters: 10 µM unless noted
- Method: Growth inhibition of the NCI-H522 human Non-Small Cell Lung tumor cell line is measured as a screen for anti-cancer activity. Cells are grown in 96 well plates and exposed to the test compound for 48 hours. Compounds are tested at a single concentration, which is 10^-5 M for most compounds. The reported endpoint is percent growth (GI% or GIPRCNT), where numbers from 0 - 100% represent growth inhibition, and numbers from -100% - 0 represent cell death. […]
Compounds without any hit were thinned out: in the full panel of roughly 83,000, 20% have a hit. The source made the active and inactive calls. The calls were made as follows: active = growth percent below 10; inactive = the rest.
Outcome codes: 1 = active, -1 = inactive

- O=C(NNc1ccccc1)OCc1ccccc1: -1
- CCCCCCCCCCCCCCCC[N+]1(C)CCCC1c1cccnc1 (stereo not given): -1
- COc1cc2c(c(OC)c1OC)-c1ccc(NCc3ccccc3)c(=O)cc1[C@@H](NC(C)=O)CC2: 1
- CCc1cnc2ccccc2c1/C=C/c1ccc(N(C)C)cc1: -1
- O=C(Cc1nc2cc(Cl)c(Cl)cc2nc1CC(=O)c1ccccc1)c1ccccc1: -1
- NC(=S)N/N=C/c1ncccc1O: -1
- O=[N+]([O-])c1ccc(C2N(Cc3ccc(Cl)cc3)CCN2Cc2ccc(Cl)cc2)cc1: -1
- O=[n+]1c2ccccc2n([O-])c2cc(Cl)ccc21: -1
- [Cl-].[Rh+3].c1ccc(-c2ccnc3c2ccc2c(-c4ccccc4)ccnc23)cc1.c1ccc(-c2ccnc3c2ccc2c(-c4ccccc4)ccnc23)cc1.c1ccc(-c2ccnc3c2ccc2c(-c4ccccc4)ccnc23)cc1: -1
- C(=N\Nc1ccc2ccccc2n1)/c1ccccn1: -1
- Fc1ccc(NCCS)cc1: -1
- O=[N+]([O-])/C(=C/c1ccccc1)c1ccccc1: -1
- OC(c1cc2ccc(C(F)(F)F)cc2c2cc(C(F)(F)F)ccc12)C1CCCCN1 (stereo not given): 1
- NC(=S)N/N=C\c1nccc2c(N)cccc12: 1
- CCCCCCCCCCCC[n+]1ccc(CCCCCCCCC)cc1: 1
- CCCCC(C=O)(C=C=C(C)C)CC (stereo not given): -1
- NC(=Nc1nc(-c2ccccn2)cc2ccccc12)c1ccccn1: -1
- N#C/C(=N\Nc1ccc(Cl)cc1)C(=O)C1CC1: -1
- CN(C)c1ccc(/C=C/c2cc[n+](C)c(/C=C/c3ccc(N(C)C)cc3)c2)cc1: 1
- CN1CSC(=S)N(Cc2ccccc2)C1: 1
- CCc1oc2ccccc2c1C(=O)c1cc(Br)c(O)c(Br)c1: -1
- O=[N+]([O-])C=C(c1ccccc1)c1ccccc1: -1
- C[n+]1ccccc1C[n+]1ccccc1: -1
- S=C1SCN(Cc2cccs2)CN1Cc1cccs1: -1
- CN(C)CCN(C)CC(C)(C)C(=O)/C=C/c1ccc(Cl)c(Cl)c1: 1
- CC1(O)CCCCCC1: -1
- COC(=O)Nc1nc2ccc(C3(c4ccc(F)cc4)OCCO3)cc2[nH]1: 1
- COc1cccc2c1C(=O)c1c(O)c3c(c(O)c1C2=O)C[C@@](O)(C(=O)CO)C[C@@H]3OC1CC(OC(C)=O)C(OC(C)=O)C(C)O1 (stereo not given in full): 1
- CC1(C)OCC(COC(c2ccccc2)(c2ccccc2)c2ccccc2)O1 (stereo not given): -1
- O=C1c2ccccc2C(=O)c2c(O)c(Cl)cc(O)c21: -1
- NC(=S)N/N=C\c1nccc2c(C(F)(F)F)cccc12: 1
- Clc1ccc(Cc2nc3ccccc3s2)cc1: -1
- COc1ccc(C(OCC2OC(n3ccc(NC(=O)c4ccccc4)nc3=O)C(O)C2O)(c2ccccc2)c2ccccc2)cc1 (stereo not given): -1
- OC(c1cc(-c2ccc(Cl)cc2)nc2c(Cl)cccc12)C1CCCCN1 (stereo not given): 1
- CCOc1ccc2c(c1)/C(=C\C=C\C1CC(C)C3CC(OCC)CCC3N1CC)CC(C)N2CC (stereo not given): 1
- CCCc1cc(=O)oc2c3c(c4c(c12)OC(C)(C)CC4)OC(C)[C@H](C)[C@@H]3O (stereo not given in full): -1
- CC1=CC(=O)C=CC1(C)C(Cl)(Cl)Cl (stereo not given): -1
- O=C1C=Cc2ccccc2/C1=C/c1nc(-c2ccccc2)oc1O: -1
- CCOC(=O)C1=NN(c2ccccc2)C(=O)/C1=C\N1C(=O)/C(=C/c2cccc(O)c2)SC1=S: -1
- c1ccc(-c2cccc(-c3ccccn3)n2)nc1: -1
- Oc1c(Cl)cc(Cl)cc1C(c1cc(Cl)cc(Cl)c1O)C(Cl)(Cl)Cl: 1
- CCOc1cc(F)c([N+](=O)[O-])cc1[N+](=O)[O-]: 1
- O=C1C=CC(=O)N1C1CCCCCCCCCCC1: 1
- C/C(=N\NC(=S)N1CC2CCC(CC2)C1)c1ccccn1: -1
- CC1(C)CCCC2=C1C(=O)N(SC(Cl)(Cl)Cl)C2=O: 1
